Species on record: Homo sapiens
Test: Selectivity ratio of Ki for kappa opioid receptor (unknown origin) to Ki for mu opioid receptor (unknown origin)
measurement-kind: Ratio Ki
The response must contain the number and no unit.

# example entries with known answers
| smiles-entry | Ratio Ki |
| --- | --- |
| COc1cccc2c1[C@]13CCN(CC4CC4)[C@H](C2)[C@]1(OC)CCC(=O)C3 | 10 |
| O=C(O[C@@]12CCC(=O)[C@@H]3Oc4c(O)ccc5c4[C@@]31CCN(CC1CC1)[C@@H]2C5)c1ccc2ccccc2c1 | 0.21 |
| O=C(O[C@@]12CCC(=O)[C@@H]3Oc4c(O)ccc5c4[C@@]31CCN(CC1CC1)[C@@H]2C5)c1ccc2ccccc2n1 | 47 |
| O=C(O[C@@]12CCC(=O)[C@@H]3Oc4c(O)ccc5c4[C@@]31CCN(CC1CC1)[C@@H]2C5)c1ccccn1 | 182 |
| O=C(O[C@@]12CCC(=O)[C@@H]3Oc4c(O)ccc5c4[C@@]31CCN(CC1CC1)[C@@H]2C5)c1ccncc1 | 8.8 |
| O=C(O[C@@]12CCC(=O)[C@@H]3Oc4c(O)ccc5c4[C@@]31CCN(CC1CC1)[C@@H]2C5)c1cnc2ccccc2c1 | 55 |

Data request: Recorded Ratio Ki for `O=C(O[C@@]12CCC(=O)[C@@H]3Oc4c(O)ccc5c4[C@@]31CCN(CC1CC1)[C@@H]2C5)c1ccccc1` , please?
Data returned: 4.7

Data request: Recorded Ratio Ki for `O=C(O[C@@]12CCC(=O)[C@@H]3Oc4c(O)ccc5c4[C@@]31CCN(CC1CC1)[C@@H]2C5)c1cccnc1` , please?
Data returned: 30

---

Species on record: Homo sapiens
Assay: Selectivity ratio of Ki for delta opioid receptor (unknown origin) to Ki for mu opioid receptor (unknown origin)
Sorting guide: entries reporting Ratio Ki beneath 10 go in the true pile, the rest go in the false pile.

| smiles-entry | class-name |
| --- | --- |
| O=C(N[C@@]12CCC(=O)[C@@H]3Oc4c(O)ccc5c4[C@@]31CCN(CC1CC1)[C@@H]2C5)c1ccncc1 | false |
| O=C(O[C@@]12CCC(=O)[C@@H]3Oc4c(O)ccc5c4[C@@]31CCN(CC1CC1)[C@@H]2C5)c1ccc2ccccc2c1 | true |
| O=C(N[C@@]12CCC(=O)[C@@H]3Oc4c(O)ccc5c4[C@@]31CCN(CC1CC1)[C@@H]2C5)c1ccc2ccccc2n1 | true |
| O=C(N[C@@]12CCC(=O)[C@@H]3Oc4c(O)ccc5c4[C@@]31CCN(CC1CC1)[C@@H]2C5)c1ccccc1 | false |

Data request: Does `Cl.O=C(N[C@@]12CCC(=O)[C@@H]3Oc4c(O)ccc5c4[C@@]31CCN(CC1CC1)[C@@H]2C5)c1cc2ccccc2cn1` have Ratio Ki strictly under 10?
Data returned: true

Data request: Does `Cl.O=C(N[C@@]12CCC(=O)[C@@H]3Oc4c(O)ccc5c4[C@@]31CCN(CC1CC1)[C@@H]2C5)c1ccccn1` have Ratio Ki strictly under 10?
Data returned: false

Data request: Does `O=C(O[C@@]12CCC(=O)[C@@H]3Oc4c(O)ccc5c4[C@@]31CCN(CC1CC1)[C@@H]2C5)c1cccnc1` have Ratio Ki strictly under 10?
Data returned: false

---

Biological target: Kappa-type opioid receptor (Homo sapiens, UniProt P41145)
Sequence (P41145 whole entry): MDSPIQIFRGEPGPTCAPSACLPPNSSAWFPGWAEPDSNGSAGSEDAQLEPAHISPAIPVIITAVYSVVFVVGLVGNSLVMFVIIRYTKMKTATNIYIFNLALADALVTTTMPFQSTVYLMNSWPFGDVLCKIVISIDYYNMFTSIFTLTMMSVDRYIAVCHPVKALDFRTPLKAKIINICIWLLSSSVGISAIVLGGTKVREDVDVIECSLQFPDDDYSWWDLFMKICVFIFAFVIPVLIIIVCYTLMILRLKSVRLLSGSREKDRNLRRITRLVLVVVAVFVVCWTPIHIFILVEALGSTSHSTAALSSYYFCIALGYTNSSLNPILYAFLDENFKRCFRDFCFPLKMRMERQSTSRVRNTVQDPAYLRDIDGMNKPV
Assay: Partial agonist activity at human kappa opioid receptor expressed in CHO cells assessed as stimulation of [35S]-GTPgammaS binding after 3 hrs by liquid scintillation counting analysis
measurement-kind: EC50 (nM)
Give just the number in nM; leave the unit off.

Data request: Fill in the recorded EC50 for this compound, with Kappa-type opioid receptor (Homo sapiens, UniProt P41145) as test system: `Oc1cccc2c1O[C@H]1CCC[C@H]3CN(CC4CC4)CC[C@@]231`
Data returned: 2.7

---

Recorded Ratio Ki, one value per entry.
Species on record: Homo sapiens
Assay: Selectivity ratio of Ki for delta opioid receptor (unknown origin) to Ki for mu opioid receptor (unknown origin)
The response must contain the number and no unit.

| smiles-entry | Ratio Ki |
| --- | --- |
| Cl.O=C(N[C@@]12CCC(=O)[C@@H]3Oc4c(O)ccc5c4[C@@]31CCN(CC1CC1)[C@@H]2C5)c1cccnc1 | 53 |
| O=C(O[C@@]12CCC(=O)[C@@H]3Oc4c(O)ccc5c4[C@@]31CCN(CC1CC1)[C@@H]2C5)c1ccncc1 | 73 |
| O=C(N[C@@]12CCC(=O)[C@@H]3Oc4c(O)ccc5c4[C@@]31CCN(CC1CC1)[C@@H]2C5)c1cnc2ccccc2c1 | 1.3 |

Alright, here's another molecule for you.
Data request: Recorded Ratio Ki for `O=C(CNC(=O)c1ccccn1)N[C@@]12CCC(=O)[C@@H]3Oc4c(O)ccc5c4[C@@]31CCN(CC1CC1)[C@@H]2C5` , please?
Data returned: 1.2

---

Recorded Ratio Ki, one value per entry.
Organism: Homo sapiens
Test: Selectivity ratio of Ki for mu opioid receptor (unknown origin) to Ki for kappa opioid receptor (unknown origin)
The response must contain the number and no unit.

# example entries with known answers
| smiles-entry | measured-number |
| --- | --- |
| O=C(Cc1ccccn1)N[C@@]12CCC(=O)[C@@H]3Oc4c(O)ccc5c4[C@@]31CCN(CC1CC1)[C@@H]2C5 | 1.5 |
| Cl.O=C(N[C@@]12CCC(=O)[C@@H]3Oc4c(O)ccc5c4[C@@]31CCN(CC1CC1)[C@@H]2C5)c1cccnc1 | 4.7 |
| O=C(N[C@@]12CCC(=O)[C@@H]3Oc4c(O)ccc5c4[C@@]31CCN(CC1CC1)[C@@H]2C5)c1ccncc1 | 2.5 |

Data request: Recorded Ratio Ki for `Cl.O=C(N[C@@]12CCC(=O)[C@@H]3Oc4c(O)ccc5c4[C@@]31CCN(CC1CC1)[C@@H]2C5)c1cc2ccccc2cn1` , please?
Data returned: 13

Data request: Recorded Ratio Ki for `O=C(CCc1ccccn1)N[C@@]12CCC(=O)[C@@H]3Oc4c(O)ccc5c4[C@@]31CCN(CC1CC1)[C@@H]2C5` , please?
Data returned: 1.9

Data request: Recorded Ratio Ki for `O=C(CNC(=O)c1ccccn1)N[C@@]12CCC(=O)[C@@H]3Oc4c(O)ccc5c4[C@@]31CCN(CC1CC1)[C@@H]2C5` , please?
Data returned: 2.1

Data request: Recorded Ratio Ki for `O=C(N[C@@]12CCC(=O)[C@@H]3Oc4c(O)ccc5c4[C@@]31CCN(CC1CC1)[C@@H]2C5)c1ccccc1` , please?
Data returned: 36

Data request: Recorded Ratio Ki for `Cl.O=C(N[C@@]12CCC(=O)[C@@H]3Oc4c(O)ccc5c4[C@@]31CCN(CC1CC1)[C@@H]2C5)c1ccccn1` , please?
Data returned: 4.2

Data request: Recorded Ratio Ki for `O=C(N[C@@]12CCC(=O)[C@@H]3Oc4c(O)ccc5c4[C@@]31CCN(CC1CC1)[C@@H]2C5)c1ccc2ccccc2n1` , please?
Data returned: 35

Data request: Recorded Ratio Ki for `O=C(N[C@@]12CCC(=O)[C@@H]3Oc4c(O)ccc5c4[C@@]31CCN(CC1CC1)[C@@H]2C5)c1ccc2ccccc2c1` , please?
Data returned: 19

Data request: Recorded Ratio Ki for `O=C(N[C@@]12CCC(=O)[C@@H]3Oc4c(O)ccc5c4[C@@]31CCN(CC1CC1)[C@@H]2C5)c1cnc2ccccc2c1` , please?
Data returned: 8.7

---

Target: Mu-type opioid receptor (Homo sapiens)
Sequence (P35372 whole entry): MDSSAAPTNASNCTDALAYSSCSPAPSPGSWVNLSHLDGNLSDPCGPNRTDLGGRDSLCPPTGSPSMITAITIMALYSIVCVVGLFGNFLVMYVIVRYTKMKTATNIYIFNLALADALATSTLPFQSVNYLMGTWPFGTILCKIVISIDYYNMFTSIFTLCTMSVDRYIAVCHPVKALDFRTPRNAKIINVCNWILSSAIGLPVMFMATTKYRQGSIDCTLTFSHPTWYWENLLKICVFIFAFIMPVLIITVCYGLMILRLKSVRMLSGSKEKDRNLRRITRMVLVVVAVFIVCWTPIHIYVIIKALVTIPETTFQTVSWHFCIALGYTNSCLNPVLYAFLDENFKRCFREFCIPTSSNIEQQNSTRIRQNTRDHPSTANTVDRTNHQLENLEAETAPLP
Assay: Agonist activity at mu opioid receptor (unknown origin) expressed in CHO cell membranes assessed as stimulation of [35S]-GTPgammaS binding after 1.5 hrs relative to DAMGO
Format: functional
measurement-kind: Emax (%)
Give just the number in %; leave the unit off.

| smiles-entry | unit-tag | Emax |
| --- | --- | --- |
| O=C(O[C@@]12CCC(=O)[C@@H]3Oc4c(O)ccc5c4[C@@]31CCN(CC1CC1)[C@@H]2C5)c1cnc2ccccc2c1 | % | 22 |
| O=C(N[C@@]12CCC(=O)[C@@H]3Oc4c(O)ccc5c4[C@@]31CCN(CC1CC1)[C@@H]2C5)c1cnc2ccccc2c1 | % | 15.8 |
| O=C(CNC(=O)c1ccccn1)N[C@@]12CCC(=O)[C@@H]3Oc4c(O)ccc5c4[C@@]31CCN(CC1CC1)[C@@H]2C5 | % | 11.8 |
| O=C(N[C@@]12CCC(=O)[C@@H]3Oc4c(O)ccc5c4[C@@]31CCN(CC1CC1)[C@@H]2C5)c1ccc2ccccc2c1 | % | 16.5 |
| O=C(N[C@@]12CCC(=O)[C@@H]3Oc4c(O)ccc5c4[C@@]31CCN(CC1CC1)[C@@H]2C5)c1ccc2ccccc2n1 | % | 34.4 |
| O=C(CCc1ccccn1)N[C@@]12CCC(=O)[C@@H]3Oc4c(O)ccc5c4[C@@]31CCN(CC1CC1)[C@@H]2C5 | % | 12.7 |
| O=C(N[C@@]12CCC(=O)[C@@H]3Oc4c(O)ccc5c4[C@@]31CCN(CC1CC1)[C@@H]2C5)c1ccncc1 | % | 7.7 |
| O=C(N[C@@]12CCC(=O)[C@@H]3Oc4c(O)ccc5c4[C@@]31CCN(CC1CC1)[C@@H]2C5)c1ccccc1 | % | 5.8 |

Data request: Recorded Emax for `O=C(Cc1ccccn1)N[C@@]12CCC(=O)[C@@H]3Oc4c(O)ccc5c4[C@@]31CCN(CC1CC1)[C@@H]2C5` , please?
Data returned: 78
